Values compiled from ChEMBL document CHEMBL1157614.

Below are Ki values measured for 5-hydroxytryptamine receptor 2B (Homo sapiens).
I only need the number, in nM, no unit after it.

[[record]]
structure_string = "Cc1ccc(S(=O)(=O)c2n[nH]c3ccc(N4CCC(N)CC4)cc23)c2ccccc12"
assay_readout = "Ki"
value = 493

[[record]]
structure_string = "CN(C)[C@H]1CCN(c2ccc3[nH]nc(S(=O)(=O)c4cccc5ccccc45)c3c2)C1"
assay_readout = "Ki"
value = 583

[[record]]
structure_string = "NC1CCN(c2ccc3[nH]nc(S(=O)(=O)c4cccc(Cl)c4)c3c2)CC1"
assay_readout = "Ki"
value = 442

[[record]]
structure_string = "NC1CCN(c2ccc3[nH]nc(S(=O)(=O)c4cccc5ccccc45)c3c2)CC1"
assay_readout = "Ki"
value = 100

[[record]]
structure_string = "CC(C)Cn1nc2ccc(N3CC[C@@H](N)C3)cc2c1S(=O)(=O)c1cccc2ccccc12"
assay_readout = "Ki"
value = 260

[[record]]
structure_string = "Cn1nc(S(=O)(=O)c2cccc3ccccc23)c2cc(N3CC[C@@H](N)C3)ccc21"
assay_readout = "Ki"
value = 185


Next compound, please.
Item `Cn1nc2ccc(N3CC[C@@H](N)C3)cc2c1S(=O)(=O)c1cccc2ccccc12` : provide Ki
455

====

tested.system: CYP2D6 (Homo sapiens)
Sequence (P10635 whole entry): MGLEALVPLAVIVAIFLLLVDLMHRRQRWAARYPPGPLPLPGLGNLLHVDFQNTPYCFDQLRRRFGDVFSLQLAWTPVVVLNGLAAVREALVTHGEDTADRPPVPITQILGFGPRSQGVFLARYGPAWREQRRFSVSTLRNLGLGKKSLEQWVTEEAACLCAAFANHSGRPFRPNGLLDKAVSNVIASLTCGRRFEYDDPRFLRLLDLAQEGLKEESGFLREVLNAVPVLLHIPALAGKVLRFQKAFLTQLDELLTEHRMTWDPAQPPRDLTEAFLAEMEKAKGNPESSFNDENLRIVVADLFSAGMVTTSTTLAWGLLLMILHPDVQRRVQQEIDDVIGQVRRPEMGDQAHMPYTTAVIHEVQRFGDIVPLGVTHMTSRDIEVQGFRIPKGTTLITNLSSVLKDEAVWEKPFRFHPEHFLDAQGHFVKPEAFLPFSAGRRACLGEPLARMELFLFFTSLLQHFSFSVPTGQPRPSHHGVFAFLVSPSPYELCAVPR
measurement.description: Inhibition of CYP2D6 at 3 uM
Format: ADME
assay.readout: inhibition at 3 µM
The reply should consist of the numeric value with the unit placed after it.

Fill in reported inhibition at 3 µM for this entry: `N[C@@H]1CCN(c2ccc3[nH]nc(S(=O)(=O)c4cccc5ccccc45)c3c2)C1`
7%

====

What follows is a collection of pKi values obtained with UniProtKB P50406.
pKi field: float, defined as -log10 of concentration (mol/L).

Solved entries (count: 4):
[[record]]
structure_string = "Cc1ccc(S(=O)(=O)c2n[nH]c3ccc(N4CCC(N)CC4)cc23)c2ccccc12"
tested_system = "UniProtKB P50406"
value = 8.44

[[record]]
structure_string = "NC1CCN(c2ccc3[nH]nc(S(=O)(=O)c4ccc5ccccc5c4)c3c2)CC1"
tested_system = "UniProtKB P50406"
value = 7.74

[[record]]
structure_string = "CC(C)n1nc2ccc(N3CC[C@@H](N)C3)cc2c1S(=O)(=O)c1cccc2ccccc12"
tested_system = "UniProtKB P50406"
value = 7.31

[[record]]
structure_string = "Cn1nc2ccc(N3CC[C@@H](N)C3)cc2c1S(=O)(=O)c1cccc2ccccc12"
tested_system = "UniProtKB P50406"
value = 7.27


// switching to the query compound
Give pKi for the following compound: `CC(C)c1ccc(S(=O)(=O)c2n[nH]c3ccc(N4CCC(N)CC4)cc23)cc1`
7.88

====

tested.system: Alpha-2A adrenergic receptor (Homo sapiens, UniProt P08913)
Sequence (P08913 whole entry): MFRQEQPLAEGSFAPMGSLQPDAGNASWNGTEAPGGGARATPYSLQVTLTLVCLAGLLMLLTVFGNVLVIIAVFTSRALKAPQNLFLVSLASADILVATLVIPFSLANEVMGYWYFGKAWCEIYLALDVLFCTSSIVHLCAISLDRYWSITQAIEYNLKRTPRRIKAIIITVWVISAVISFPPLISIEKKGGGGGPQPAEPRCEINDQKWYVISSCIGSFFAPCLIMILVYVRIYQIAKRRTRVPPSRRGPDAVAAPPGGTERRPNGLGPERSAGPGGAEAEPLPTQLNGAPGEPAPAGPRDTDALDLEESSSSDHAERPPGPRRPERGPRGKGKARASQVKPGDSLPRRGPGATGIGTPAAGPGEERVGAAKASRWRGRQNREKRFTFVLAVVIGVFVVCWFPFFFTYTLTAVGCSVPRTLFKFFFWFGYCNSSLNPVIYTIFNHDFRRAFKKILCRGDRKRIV
pKi: −log10 of the molar value.
assay.readout: pKi

Give recorded pKi. `N[C@@H]1CCN(c2ccc3[nH]nc(S(=O)(=O)c4cccc5ccccc45)c3c2)C1`
< 5.00

====

measurement.description: Half life in rat microsomes
Assay type: ADME, Microsome
assay.readout: half-life
Quick note: number first, unit second.

Output half-life of `N[C@@H]1CCN(c2ccc3[nH]nc(S(=O)(=O)c4cccc5ccccc45)c3c2)C1`
20 min

====

tested.system: 5-hydroxytryptamine receptor 6 (Homo sapiens, UniProt P50406)
Sequence (P50406 whole entry): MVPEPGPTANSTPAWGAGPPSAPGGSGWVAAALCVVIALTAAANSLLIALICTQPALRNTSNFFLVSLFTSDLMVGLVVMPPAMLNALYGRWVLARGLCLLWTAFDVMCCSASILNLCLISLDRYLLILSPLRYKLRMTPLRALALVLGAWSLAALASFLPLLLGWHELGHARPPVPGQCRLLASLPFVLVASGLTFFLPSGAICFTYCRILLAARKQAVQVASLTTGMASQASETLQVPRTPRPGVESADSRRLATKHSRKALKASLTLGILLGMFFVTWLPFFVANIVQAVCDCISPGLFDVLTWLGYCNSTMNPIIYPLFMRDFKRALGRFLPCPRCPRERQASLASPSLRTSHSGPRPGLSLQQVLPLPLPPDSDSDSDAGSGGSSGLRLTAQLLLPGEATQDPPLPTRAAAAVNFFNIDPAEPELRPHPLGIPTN
measurement.description: Antagonist activity at human cloned 5HT6 receptor expressed in human HeLa cells assessed as intracellular cAMP formation by RIA
assay.readout: pIC50
pIC50 here: minus log base 10 of the concentration, concentration in moles per litre.

Completed entries (count: 10):
[[record]]
structure_string = "CC(C)n1nc2ccc(N3CC[C@@H](N)C3)cc2c1S(=O)(=O)c1cccc2ccccc12"
assay_readout = "pIC50"
value = 6.42

[[record]]
structure_string = "NC1CN(c2ccc3[nH]nc(S(=O)(=O)c4cccc5ccccc45)c3c2)C1"
assay_readout = "pIC50"
value = 7.78

[[record]]
structure_string = "Cc1ccc(S(=O)(=O)c2n[nH]c3ccc(N4CCC(N)CC4)cc23)c2ccccc12"
assay_readout = "pIC50"
value = 7.57

[[record]]
structure_string = "Cn1nc(S(=O)(=O)c2cccc3ccccc23)c2cc(N3CC[C@@H](N)C3)ccc21"
assay_readout = "pIC50"
value = 6.50

[[record]]
structure_string = "CN(C)[C@H]1CCN(c2ccc3[nH]nc(S(=O)(=O)c4cccc5ccccc45)c3c2)C1"
assay_readout = "pIC50"
value = 7.76

[[record]]
structure_string = "Cn1nc2ccc(N3CC[C@@H](N)C3)cc2c1S(=O)(=O)c1cccc2ccccc12"
assay_readout = "pIC50"
value = 6.35

[[record]]
structure_string = "NC1CCN(c2ccc3[nH]nc(S(=O)(=O)c4ccc5ccccc5c4)c3c2)CC1"
assay_readout = "pIC50"
value = 7.05

[[record]]
structure_string = "CC(C)c1ccc(S(=O)(=O)c2n[nH]c3ccc(N4CCC(N)CC4)cc23)cc1"
assay_readout = "pIC50"
value = 7.29

[[record]]
structure_string = "CC(C)Cn1nc2ccc(N3CC[C@@H](N)C3)cc2c1S(=O)(=O)c1cccc2ccccc12"
assay_readout = "pIC50"
value = 6.36

[[record]]
structure_string = "NC1CCN(c2ccc3[nH]nc(S(=O)(=O)c4cccc5c(Cl)cccc45)c3c2)CC1"
assay_readout = "pIC50"
value = 7.15


Read the entry `CN(C)[C@@H]1CCN(c2ccc3[nH]nc(S(=O)(=O)c4cccc5ccccc45)c3c2)C1` and write its reported pIC50.
7.40

====

tested.system: 5-hydroxytryptamine receptor 2B (Homo sapiens)
Sequence (P41595 whole entry): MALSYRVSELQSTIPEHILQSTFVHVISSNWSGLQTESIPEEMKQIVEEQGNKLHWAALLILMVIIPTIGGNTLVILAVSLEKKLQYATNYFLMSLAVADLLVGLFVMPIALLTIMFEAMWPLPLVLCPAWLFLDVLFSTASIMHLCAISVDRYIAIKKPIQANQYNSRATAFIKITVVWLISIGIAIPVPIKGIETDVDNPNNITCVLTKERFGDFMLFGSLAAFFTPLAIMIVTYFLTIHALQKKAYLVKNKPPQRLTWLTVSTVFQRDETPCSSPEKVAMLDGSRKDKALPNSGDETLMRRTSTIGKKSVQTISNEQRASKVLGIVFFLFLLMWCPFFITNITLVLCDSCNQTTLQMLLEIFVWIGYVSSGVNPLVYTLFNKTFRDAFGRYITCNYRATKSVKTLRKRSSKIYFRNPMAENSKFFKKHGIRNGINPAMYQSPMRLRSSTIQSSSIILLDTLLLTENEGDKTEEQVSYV
measurement.description: Agonist activity at human 5HT2B receptor expressed in CHO cells assessed as intracellular cAMP formation by RIA
Type: functional, cell-based
Activity calls are given as the source filed them. The calls are words filed in the database; no cut-off is given here.
assay.readout: Activity

[[record]]
structure_string = "NC1CCN(c2ccc3[nH]nc(S(=O)(=O)c4cccc5ccccc45)c3c2)CC1"
value = "inactive"

[[record]]
structure_string = "CN(C)[C@H]1CCN(c2ccc3[nH]nc(S(=O)(=O)c4cccc5ccccc45)c3c2)C1"
value = "inactive"

[[record]]
structure_string = "CN(C)[C@@H]1CCN(c2ccc3[nH]nc(S(=O)(=O)c4cccc5ccccc45)c3c2)C1"
value = "inactive"


====

Measured IC50, listed per entry for reference.
tested.system: 5-hydroxytryptamine receptor 6 (Homo sapiens, UniProt P50406)
measurement.description: Antagonist activity at human cloned 5HT6 receptor expressed in human HeLa cells assessed as intracellular cAMP formation by RIA
# unit: nM | format: bare number

See these solved cases before continuing.
[[record]]
structure_string = "NC1CCN(c2ccc3[nH]nc(S(=O)(=O)c4cccc(Cl)c4)c3c2)CC1"
tested_system = "5-hydroxytryptamine receptor 6 (Homo sapiens, UniProt P50406)"
assay_readout = "IC50"
value = 33.7

[[record]]
structure_string = "CC(C)n1nc(S(=O)(=O)c2cccc3ccccc23)c2cc(N3CC[C@@H](N)C3)ccc21"
tested_system = "5-hydroxytryptamine receptor 6 (Homo sapiens, UniProt P50406)"
assay_readout = "IC50"
value = 157


Now examine the next entry.
Identify IC50 associated with the molecule `CC(C)Cn1nc(S(=O)(=O)c2cccc3ccccc23)c2cc(N3CC[C@@H](N)C3)ccc21`
203
